test: Half life of the compound at C2 position in acetone-d6/D2O/CF3CO2H at 0.01 M by NMR spectroscopy analysis; type: physicochemical
Catalogue of t1/2 readings, one per entry.
Write it as a number; the unit h goes unstated.

# compound, t1/2, h
rows = [
    ("CC(=O)O[C@H]1C(=O)[C@@]2(C)[C@H]([C@H](OC(=O)c3ccccc3)[C@]3(O)C[C@H](OC(=O)[C@H](O[Si](OC(C)=O)(OC(C)(C)C)OC(C)(C)C)[C@@H](NC(=O)c4ccccc4)c4ccccc4)C(C)=C1C3(C)C)[C@]1(OC(C)=O)CO[C@@H]1C[C@@H]2O", 0.583),
    ("CCO[Si](O[C@@H](C(=O)O[C@H]1C[C@@]2(O)[C@@H](OC(=O)c3ccccc3)[C@@H]3[C@]4(OC(C)=O)CO[C@@H]4C[C@H](O)[C@@]3(C)C(=O)[C@H](O)C(=C1C)C2(C)C)[C@@H](NC(=O)OC(C)(C)C)c1ccccc1)(OC(C)(C)C)OC(C)(C)C", 226.67),
    ("CC(=O)O[C@H]1C(=O)[C@@]2(C)[C@H]([C@H](OC(=O)c3ccccc3)[C@]3(O)C[C@H](OC(=O)[C@H](O[Si](OC4CC(C)CCC4C(C)C)(OC4CC(C)CCC4C(C)C)OC4CC(C)CCC4C(C)C)[C@@H](NC(=O)c4ccccc4)c4ccccc4)C(C)=C1C3(C)C)[C@]1(OC(C)=O)CO[C@@H]1C[C@@H]2O (some centres undefined)", 1150),
]

Next, consider the following compound.
**Query** Consider the compound CCO[Si](O[C@@H](C(=O)O[C@H]1C[C@@]2(O)[C@@H](OC(=O)c3ccccc3)[C@@H]3[C@]4(OC(C)=O)CO[C@@H]4C[C@H](O)[C@@]3(C)C(=O)[C@H](OC(C)=O)C(=C1C)C2(C)C)[C@@H](NC(=O)c1ccccc1)c1ccccc1)(OC(C)(C)C)OC(C)(C)C and give its recorded t1/2.
**Result** 200

---

test: Retention time of the compound up to by LC/MS analysis; assay type: physicochemical
Classify by measured Retention_time: label 1 if it is equal to or exceeds 20 min, label 0 if it is smaller.

Reference set, count: 2
# compound, cat
measured = [
    ("CCCCCCCCO[Si](OCCCCCCCC)(OCCCCCCCC)O[C@H]1C[C@H]2OC[C@@]2(OC(C)=O)[C@H]2[C@H](OC(=O)c3ccccc3)[C@]3(O)C[C@H](OC(=O)[C@H](O)[C@@H](NC(=O)c4ccccc4)c4ccccc4)C(C)=C([C@@H](OC(C)=O)C(=O)[C@]12C)C3(C)C", "label 1"),
    ("CCO[Si](OCC)(OCC)O[C@@H](C(=O)O[C@H]1C[C@@]2(O)[C@@H](OC(=O)c3ccccc3)[C@@H]3[C@]4(OC(C)=O)CO[C@@H]4C[C@H](O)[C@@]3(C)C(=O)[C@H](OC(C)=O)C(=C1C)C2(C)C)[C@@H](NC(=O)c1ccccc1)c1ccccc1", "label 0"),
]

**Query** Quick check: does CC(=O)O[C@H]1C(=O)[C@@]2(C)[C@H]([C@H](OC(=O)c3ccccc3)[C@]3(O)C[C@H](OC(=O)[C@H](O[Si](OC4CC(C)CCC4C(C)C)(OC4CC(C)CCC4C(C)C)OC4CC(C)CCC4C(C)C)[C@@H](NC(=O)c4ccccc4)c4ccccc4)C(C)=C1C3(C)C)[C@]1(OC(C)=O)CO[C@@H]1C[C@@H]2O (stereo partly specified) have Retention_time greater than or equal to 20 min?
**Result** label 1

**Query** Quick check: does CCO[Si](O[C@@H](C(=O)O[C@H]1C[C@@]2(O)[C@@H](OC(=O)c3ccccc3)[C@@H]3[C@]4(OC(C)=O)CO[C@@H]4C[C@H](O)[C@@]3(C)C(=O)[C@H](O)C(=C1C)C2(C)C)[C@@H](NC(=O)OC(C)(C)C)c1ccccc1)(OC(C)(C)C)OC(C)(C)C have Retention_time greater than or equal to 20 min?
**Result** label 0

**Query** Quick check: does CC(=O)O[C@@]12CO[C@@H]1C[C@H](O)[C@@]1(C)C(=O)[C@H](O)C3=C(C)[C@@H](OC(=O)[C@H](O[Si](OC(C)C)(OC(C)C)OC(C)C)[C@@H](NC(=O)OC(C)(C)C)c4ccccc4)C[C@@](O)([C@@H](OC(=O)c4ccccc4)[C@H]21)C3(C)C have Retention_time greater than or equal to 20 min?
**Result** label 0

**Query** Quick check: does CC(=O)O[C@@]12CO[C@@H]1C[C@H](O)[C@@]1(C)C(=O)[C@H](O)C3=C(C)[C@@H](OC(=O)[C@H](O)[C@@H](NC(=O)OC(C)(C)C)c4ccccc4)C[C@@](O)([C@@H](OC(=O)c4ccccc4)[C@H]21)C3(C)C.O.O.O have Retention_time greater than or equal to 20 min?
**Result** label 0
